For each of the binders below, state its IC50 (mut) / IC50 (wt).
- system name: T1, VEGF (human, UniProt P15692-4 27-191, limits assumed)
- T1 construct: also called human VEGF; vascular endothelial growth factor
- T1 sequence (P15692 other isoform, or with tags, fused parts or gaps limits assumed): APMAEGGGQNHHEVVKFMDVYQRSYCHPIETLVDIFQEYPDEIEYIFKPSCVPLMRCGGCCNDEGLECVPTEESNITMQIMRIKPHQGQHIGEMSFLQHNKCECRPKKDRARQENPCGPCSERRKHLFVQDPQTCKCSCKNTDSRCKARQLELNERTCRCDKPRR
- method summary: competitive phage-ELISA, wt = pY0192
One number for each entry.

Worked set:
State, in one line, measured IC50 (mut) / IC50 (wt) of pY0192 VH Y103A (Fab, V domains shown) VH: EVQLVESGGGLVQPGGSLRLSCAASGYTFTNYGINWVRQAPGKGLEWVGWINTYTGEPTYAADFKRRFTFSLDTSKSTAYLQMNSLRAEDTAVYYCAKYPHYAGSSHWYFDVWGQGTL VL: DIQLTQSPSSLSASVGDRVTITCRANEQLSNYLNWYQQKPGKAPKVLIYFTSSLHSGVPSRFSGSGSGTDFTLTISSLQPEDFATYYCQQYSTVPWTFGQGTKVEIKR
5

State, in one line, measured IC50 (mut) / IC50 (wt) of pY0192 VH Y109A (Fab, V domains shown) VH: EVQLVESGGGLVQPGGSLRLSCAASGYTFTNYGINWVRQAPGKGLEWVGWINTYTGEPTYAADFKRRFTFSLDTSKSTAYLQMNSLRAEDTAVYYCAKYPHYYGSSHWAFDVWGQGTL VL: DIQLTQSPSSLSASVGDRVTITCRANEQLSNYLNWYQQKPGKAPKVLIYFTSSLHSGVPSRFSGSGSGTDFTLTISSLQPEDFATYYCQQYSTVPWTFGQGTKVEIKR
19

State, in one line, measured IC50 (mut) / IC50 (wt) of pY0192 VH I34A (Fab, V domains shown) VH: EVQLVESGGGLVQPGGSLRLSCAASGYTFTNYGANWVRQAPGKGLEWVGWINTYTGEPTYAADFKRRFTFSLDTSKSTAYLQMNSLRAEDTAVYYCAKYPHYYGSSHWYFDVWGQGTL VL: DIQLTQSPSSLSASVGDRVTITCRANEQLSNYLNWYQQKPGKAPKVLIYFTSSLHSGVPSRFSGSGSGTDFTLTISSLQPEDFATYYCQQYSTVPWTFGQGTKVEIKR
6

State, in one line, measured IC50 (mut) / IC50 (wt) of pY0192 VH Y54A (Fab, V domains shown) VH: EVQLVESGGGLVQPGGSLRLSCAASGYTFTNYGINWVRQAPGKGLEWVGWINTATGEPTYAADFKRRFTFSLDTSKSTAYLQMNSLRAEDTAVYYCAKYPHYYGSSHWYFDVWGQGTL VL: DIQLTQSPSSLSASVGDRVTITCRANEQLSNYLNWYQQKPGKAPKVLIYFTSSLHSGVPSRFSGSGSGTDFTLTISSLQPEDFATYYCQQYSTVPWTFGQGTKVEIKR
9

I have 4 binders here; please give me IC50 (mut) / IC50 (wt) for each one.
1. pY0192 VH Y102A (Fab, V domains shown) VH: EVQLVESGGGLVQPGGSLRLSCAASGYTFTNYGINWVRQAPGKGLEWVGWINTYTGEPTYAADFKRRFTFSLDTSKSTAYLQMNSLRAEDTAVYYCAKYPHAYGSSHWYFDVWGQGTL VL: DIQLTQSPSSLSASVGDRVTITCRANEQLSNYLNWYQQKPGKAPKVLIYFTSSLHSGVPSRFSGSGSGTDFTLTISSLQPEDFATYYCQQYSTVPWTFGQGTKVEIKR
2. pY0192 VH F29A (Fab, V domains shown) VH: EVQLVESGGGLVQPGGSLRLSCAASGYTATNYGINWVRQAPGKGLEWVGWINTYTGEPTYAADFKRRFTFSLDTSKSTAYLQMNSLRAEDTAVYYCAKYPHYYGSSHWYFDVWGQGTL VL: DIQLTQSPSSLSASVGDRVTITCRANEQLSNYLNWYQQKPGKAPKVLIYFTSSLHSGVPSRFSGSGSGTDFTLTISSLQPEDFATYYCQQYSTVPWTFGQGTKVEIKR
3. pY0192 VH T53A (Fab, V domains shown) VH: EVQLVESGGGLVQPGGSLRLSCAASGYTFTNYGINWVRQAPGKGLEWVGWINAYTGEPTYAADFKRRFTFSLDTSKSTAYLQMNSLRAEDTAVYYCAKYPHYYGSSHWYFDVWGQGTL VL: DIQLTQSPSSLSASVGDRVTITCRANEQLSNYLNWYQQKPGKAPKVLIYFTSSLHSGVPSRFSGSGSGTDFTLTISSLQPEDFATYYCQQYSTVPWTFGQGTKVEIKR
4. pY0192 VH P100A (Fab, V domains shown) VH: EVQLVESGGGLVQPGGSLRLSCAASGYTFTNYGINWVRQAPGKGLEWVGWINTYTGEPTYAADFKRRFTFSLDTSKSTAYLQMNSLRAEDTAVYYCAKYAHYYGSSHWYFDVWGQGTL VL: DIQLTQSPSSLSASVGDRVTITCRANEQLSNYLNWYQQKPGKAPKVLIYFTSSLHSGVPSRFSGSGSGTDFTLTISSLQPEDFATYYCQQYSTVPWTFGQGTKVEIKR

4
16
9
38
